Assay system: Beta-lactamase (Escherichia coli (strain K12))
Assay name: qHTS Inhibitors of AmpC Beta-Lactamase (assay without detergent); further: nearly all actives have a fitted effect of over 20% in size
Recorded conditions: AmpC nitrocefin hydrolysis, absorbance 480 nm, 0.0001% Triton; series mostly up to 57.1 µM
The whole screen tested about 330,000 compounds, of which about 1,700 (0.52%) were called active. The call rests on the fitted dose curve; in most records, active means well fitted inhibition curve with a large enough effect; inconclusive means small, poorly fitted or top-dose-only effect; inactive means no such curve, though single readings can be large or run the other way. For the sample, actives were picked, then their nearest neighbours and some compounds at random.
Mark one answer only. Choices: active, inactive

Req: Status in this test for `Cc1cc2ccccc2n1CCC(=O)O` ?
Resp: inactive

Req: Status in this test for `Cc1cc(=O)[nH]c(SCc2cc(Cl)ccc2OC(F)F)n1` ?
Resp: inactive

Req: Status in this test for CC(=O)C1C(c2ccc(Cl)cc2)NC(=O)NC1(O)C(F)(F)F (stereo unspecified) ?
Resp: active

Req: Status in this test for COC(=O)C(C)NC(=O)COc1ccc2ccccc2c1 (stereo unspecified) ?
Resp: inactive

Req: Status in this test for `Cc1cc(C(=O)N/N=C/c2ccc(O)c([N+](=O)[O-])c2)c(C)n1-c1ccc(F)cc1` ?
Resp: active

Req: Status in this test for `Cc1cc(=O)[nH]c(SCc2cccc(F)c2)n1` ?
Resp: inactive

Req: Status in this test for `O=C(CCc1ccccc1F)N1CCN(c2ccccc2)CC1` ?
Resp: inactive

Req: Status in this test for `O=C1CSC(=S)N1/N=C/c1ccc(O)c([N+](=O)[O-])c1` ?
Resp: inactive

###

Assay system: Beta-lactamase (Escherichia coli (strain K12)) (UniProt P00811)
Sequence (P00811 whole entry, looked up): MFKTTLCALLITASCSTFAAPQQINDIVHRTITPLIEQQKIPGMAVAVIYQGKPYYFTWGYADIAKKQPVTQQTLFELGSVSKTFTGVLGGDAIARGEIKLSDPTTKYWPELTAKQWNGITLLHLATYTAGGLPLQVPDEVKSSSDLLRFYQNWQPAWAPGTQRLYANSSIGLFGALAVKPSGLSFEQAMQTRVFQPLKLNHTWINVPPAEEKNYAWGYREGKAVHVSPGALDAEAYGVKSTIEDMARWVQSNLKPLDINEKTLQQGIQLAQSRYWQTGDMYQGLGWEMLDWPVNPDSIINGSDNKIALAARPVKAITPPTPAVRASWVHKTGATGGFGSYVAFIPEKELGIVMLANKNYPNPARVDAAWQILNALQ
Assay name: qHTS Inhibitors of AmpC Beta-Lactamase (assay without detergent); further: nearly all actives have a fitted effect of over 20% in size
Recorded conditions: AmpC nitrocefin hydrolysis, absorbance 480 nm, 0.0001% Triton; series mostly up to 57.1 µM
The campaign covered roughly 330,000 compounds. About 1,700 (0.52%) were called active. Calls come from the whole dose curve; as a rule, active = well fitted inhibition curve with a large enough effect; inconclusive = small, poorly fitted or top-dose-only effect; inactive = no such curve, though single readings can be large or run the other way. This is one part of a sample in which actives are shown more often than they occur.
Mark one answer only. Choices: active, inactive

{"Molecule": "Oc1c(CN2CCCC2)cc(COCc2ccccc2)c2cccnc12", "Label": "inactive"}
{"Molecule": "O=[N+]([O-])c1ccc(N2CCN(S(=O)(=O)c3ccccc3)CC2)cc1N1CCc2ccccc2C1", "Label": "inactive"}
{"Molecule": "CCC(C(=O)Nc1ncccn1)(C(F)(F)F)C(F)(F)F", "Label": "inactive"}

Req: Status in this test for CC1CCCN(Cc2nc3c(c(=O)n(C)c(=O)n3C)n2CC(=O)c2ccccc2)C1 (stereo not given) ?
Resp: inactive

Req: Status in this test for `CCN1CCN(Cc2nc3c(c(=O)n(C)c(=O)n3C)n2CC(=O)c2ccccc2)CC1` ?
Resp: active

###

Assay system: Beta-lactamase (Escherichia coli (strain K12)) (UniProt P00811)
Assay name: qHTS Inhibitors of AmpC Beta-Lactamase (assay without detergent); further: nearly all actives have a fitted effect of over 20% in size
Recorded conditions: AmpC nitrocefin hydrolysis, absorbance 480 nm, 0.0001% Triton; series mostly up to 57.1 µM
The campaign covered roughly 330,000 compounds. About 1,700 (0.52%) were called active. Calls follow the shape of the dose curve; as a rule, active = well fitted inhibition curve with a large enough effect; inconclusive = small, poorly fitted or top-dose-only effect; inactive = no such curve, though single readings can be large or run the other way. The list comes from a sample in which actives are over-represented; it also holds close analogues and randomly drawn compounds.
Mark one answer only. Choices: 1 (yes) = active, 0 (no) = inactive

For orientation, consider the following solved cases.
{"Molecule": "COc1cc2c(-c3ccc4c(c3)OCO4)c(-c3ccsc3)oc(=O)c2cc1OC", "Assay system": "Beta-lactamase (Escherichia coli (strain K12)) (UniProt P00811)", "Label": "0 (no)"}
{"Molecule": "COc1ccc(-c2cc(C(=O)N(C)CC(=O)Nc3ccccc3Cl)c3ccccc3n2)cc1OC", "Assay system": "Beta-lactamase (Escherichia coli (strain K12)) (UniProt P00811)", "Label": "0 (no)"}
{"Molecule": "CCOc1ccc(-n2cnc3c(=O)[nH]c(N)nc32)cc1", "Assay system": "Beta-lactamase (Escherichia coli (strain K12)) (UniProt P00811)", "Label": "0 (no)"}
{"Molecule": "O=C1Cc2cc(S(=O)(=O)Nc3cccc(F)c3)ccc2N1", "Assay system": "Beta-lactamase (Escherichia coli (strain K12)) (UniProt P00811)", "Label": "0 (no)"}
{"Molecule": "O=C(CN1CCCC1)Nc1sc2c(c1C(=O)Nc1ccccc1)CCCC2", "Assay system": "Beta-lactamase (Escherichia coli (strain K12)) (UniProt P00811)", "Label": "0 (no)"}

Req: Status in this test for `O=C(CN1C(=O)/C(=C\c2ccc(C(F)(F)F)cc2)Sc2ccccc21)NCc1ccco1` ?
Resp: 1 (yes)

Req: Status in this test for O=C(CC(NS(=O)(=O)c1ccc(Cl)cc1)c1ccco1)NC1CCCC1 (stereo not given) ?
Resp: 0 (no)

Req: Status in this test for `C=CCC1=C/C(=C\c2c(N)n3nc(CC(=O)N4CCOCC4)sc3nc2=O)C=C(OC)C1=O` ?
Resp: 0 (no)

Req: Status in this test for `O=C(COc1ccc([N+](=O)[O-])cc1)Nc1cccc(C(=O)Nc2ccccc2C(=O)O)c1` ?
Resp: 0 (no)

Req: Status in this test for `O=C(CCCn1c(=O)oc2ccccc21)Nc1cccnc1` ?
Resp: 0 (no)
